ASSAY PROCEDURE: M. tuberculosis growth inhibition, HTS (AID 1259417);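 also: bacteria grown with compound for 5 days at 37 °C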
CONDITION DESCRIPTION: M. tuberculosis growth inhibition; stronger effect = higher value; concentration not given here
About 760 (69%) of roughly 1,100 compounds were called active. The set was probably picked from earlier hits. The list shows a part of the results.
OBSERVATION TYPE: inhibition

[
  {
    "COMPOUND": "Clc1ccc(OCCCCCn2ccnc2)c(Cl)c1",
    "inhibition": "99.3%"
  },
  {
    "COMPOUND": "O=C(CC(O)(C(F)(F)F)C(F)(F)F)Nc1ccc(Cl)c(Cl)c1",
    "inhibition": "101%"
  },
  {
    "COMPOUND": "Cc1cccc(C(=O)Nc2sc3c(c2C(=O)N2CCCC2)CCC3)c1",
    "inhibition": "-7.24%"
  },
  {
    "COMPOUND": "CC(C)(C)c1ccc(C(=O)Nc2nnc(-c3ccncc3)o2)cc1",
    "inhibition": "77.1%"
  },
  {
    "COMPOUND": "CCOC(=O)N1CCN(CCC(=O)c2ccc(Cl)cc2)CC1",
    "inhibition": "58.7%"
  },
  {
    "COMPOUND": "O=C(Nc1ccc(Cl)c(C(F)(F)F)c1)c1csc2c1CCCC2",
    "inhibition": "-27.8%"
  },
  {
    "COMPOUND": "CCCOc1ccccc1NC(=O)Nc1ccc(Cl)c(Cl)c1",
    "inhibition": "-14.7%"
  },
  {
    "COMPOUND": "CCC(C)c1ccc(OCCn2ccnc2)cc1 (centres undefined)",
    "inhibition": "99.6%"
  },
  {
    "COMPOUND": "COC(=O)CSc1nnc(-c2ccc(OC)c(OC)c2)o1",
    "inhibition": "92.4%"
  },
  {
    "COMPOUND": "COc1cccc(C(=O)NC(=S)Nc2ccc(N3CCN(C(=O)c4cccs4)CC3)c(Cl)c2)c1",
    "inhibition": "11.5%"
  }
]

QUERY: Could you please provide reported inhibition for `CCOC(=O)CNC(=O)CSc1nc(-c2cccc(C)c2)ns1` ? Thanks!
RESULT: 71.3%

QUERY: Could you please provide reported inhibition for `COC(=O)c1ccc2nc(C)cc(Nc3ccc(OCc4ccccc4)cc3)c2c1` ? Thanks!
RESULT: 99.7%

QUERY: Could you please provide reported inhibition for `COc1ccc(OC)c(NC(=O)c2cc3cc(Br)ccc3oc2=O)c1` ? Thanks!
RESULT: 46.5%

QUERY: Could you please provide reported inhibition for COC(=O)C(C)Oc1ccc2c(=O)c(Oc3ccccc3Br)coc2c1 (centres undefined) ? Thanks!
RESULT: 82.3%

QUERY: Could you please provide reported inhibition for CCOc1cc(CNC(C)C23CC4CC(CC(C4)C2)C3)cc(Cl)c1OCC(=O)NC(C)(C)C (centres undefined) ? Thanks!
RESULT: 98.2%
